This collection of values is drawn from patent US20230331655A1.

Measured half-life accompanies every entry in the list below.
PROTOCOL: pharmacokinetics in plasma and brain after intraperitoneal administration (UPLC-MS/MS)
Type: in vivo, mouse
PROTOCOL CONDITIONS: CD-1, mouse, plasma, ip; female mice; i.p. 5 mg/kg; terminal half-life; read-out: t1/2 Plasma (converted)
MEASUREMENT NAME: half-life (min)

C[C@@H]1CC[C@@](N)(c2ccccc2Cl)C(=O)[C@@H]1O.Cl    48
N[C@@]1(c2ccccc2Cl)CCC[C@@H](O)C1=O [(2R,6R)-HNK, (2R,6R)-hydroxynorketamine]    36

---

Here the recorded Kp is given for each entry.
PROTOCOL: pharmacokinetics in plasma and brain after intraperitoneal administration (UPLC-MS/MS)
Format: in vivo, mouse
PROTOCOL CONDITIONS: CD-1, mouse, brain and plasma, ip; male mice; i.p. 5 mg/kg; read-out: B:P ratio (brain to plasma AUC ratio)
MEASUREMENT NAME: Kp

N[C@@]1(c2ccccc2Cl)CCC[C@@H](O)C1=O [(2R,6R)-HNK, (2R,6R)-hydroxynorketamine]    1.3
C[C@@H]1CC[C@@](N)(c2ccccc2Cl)C(=O)[C@@H]1O.Cl    0.4
N[C@@]1(c2ccccc2Cl)CCC[C@H](O)C1=O    0.6
N[C@]1(c2ccccc2Cl)CCC[C@@H](O)C1=O    1.2

---

PROTOCOL: pharmacokinetics in plasma and brain after intraperitoneal administration (UPLC-MS/MS)
Format: in vivo, mouse
PROTOCOL CONDITIONS: CD-1, mouse, brain and plasma, ip; female mice; i.p. 5 mg/kg; read-out: B:P ratio (brain to plasma AUC ratio)
Quick reference: Kp of the listed items.
MEASUREMENT NAME: Kp

C[C@@H]1CC[C@@](N)(c2ccccc2Cl)C(=O)[C@@H]1O.Cl    0.4
N[C@@]1(c2ccccc2Cl)CCC[C@@H](O)C1=O [(2R,6R)-HNK, (2R,6R)-hydroxynorketamine]    1.3
N[C@@]1(c2ccccc2Cl)CCC[C@H](O)C1=O    0.7
N[C@]1(c2ccccc2Cl)CCC[C@@H](O)C1=O    1.4
N[C@]1(c2ccccc2Cl)CCC[C@H](O)C1=O [(2S,6S)-HNK, (2S,6S)-hydroxynorketamine]    1.2

---

Catalogue of half-life values
PROTOCOL: pharmacokinetics in plasma and brain after intraperitoneal administration (UPLC-MS/MS)
Format: in vivo, mouse
PROTOCOL CONDITIONS: CD-1, mouse, plasma, ip; male mice; i.p. 5 mg/kg; terminal half-life; read-out: t1/2 Plasma (converted)
MEASUREMENT NAME: half-life (min)

N[C@@]1(c2ccccc2Cl)CCC[C@H](O)C1=O [(2R,6S)-HNK]    54
N[C@@]1(c2ccccc2Cl)CCC[C@@H](O)C1=O [(2R,6R)-HNK, (2R,6R)-hydroxynorketamine]    36
N[C@]1(c2ccccc2Cl)CCC[C@@H](O)C1=O [(2S,6R)-HNK]    42
N[C@]1(c2ccccc2Cl)CCC[C@H](O)C1=O [(2S,6S)-HNK, (2S,6S)-hydroxynorketamine]    42
C[C@@H]1CC[C@@](N)(c2ccccc2Cl)C(=O)[C@@H]1O.Cl [(5R)-methyl-(2R,6R)-HNK]    48

---

PROTOCOL: pharmacokinetics in plasma and brain after intraperitoneal administration (UPLC-MS/MS)
Type: in vivo, mouse
PROTOCOL CONDITIONS: female mice; i.p. 5 mg/kg
# note: exactly 1 is not below, so it is n; use y for B:P ratio (brain to plasma AUC ratio) strictly under it

N[C@@]1(c2ccccc2Cl)CC[C@@H](O)CC1=O    n
N[C@@]1(c2ccccc2Cl)C[C@H](O)CCC1=O    n
N[C@]1(c2ccccc2Cl)C[C@@H](O)CCC1=O    y
N[C@]1(c2ccccc2Cl)CC[C@H](O)CC1=O    n
